system: HOP-92 NSCLC; assay: NCI tumour cell line growth inhibition, 48 h; in the data active = GI50 below about 0.43 µM; inactive = the rest
Hello, when you answer, please use one of the following outcomes: active, inactive

These recorded examples may help you get a feel for the data.
>>> class_label("Clc1ccc2c(c1)N(C1CCCN(Cc3ccccc3)C1)c1ccccc1S2 (stereo not given)")
"inactive"
>>> class_label("CC1=C(C(=O)Nc2ccc(F)c(Cl)c2)C(c2cccc(Oc3ccccc3)c2)NC(=S)N1 (stereo not given)")
"inactive"
>>> class_label("CCN(CC)CCN1c2nc3ccccc3cc2Sc2cc3ccccc3nc21")
"inactive"
>>> class_label("O=C(Nc1cc(Cl)ccc1O)c1ccccc1Nc1ccnc(C(F)(F)F)c1")
"inactive"
>>> class_label("COc1cc2c3c(n(CCCNCCCNCCN)c(=O)c2cc1OC)-c1cc2c(cc1C3=O)OCO2")
"inactive"

So what was the verdict on CN(C)Cc1ccc(NC(=O)c2cncc(C#Cc3cnc(N)c4ncccc34)c2)cc1F in this test?
inactive

Could you kindly confirm the outcome this assay logged for O=C(Nc1cc(F)c(F)cc1C(=O)O)c1ccc(-n2ccnc2)nn1 ?
inactive

Which outcome was assigned to O=C1C=C(OCC=C(C(F)(F)F)C(F)(F)F)c2ccccc2C1=O in this test?
inactive

Any idea what this test logged for COc1ccc2c(c1)/C(=C\c1c(-c3cc(OC)ccc3OC)nc3sccn13)C(=O)N2 ?
inactive

Recorded test call requested for CCN(CC)c1ccc(-c2cc(-c3cc(OC)c(OC)c(OC)c3)nc(N3CCC(O)CC3)c2C#N)cc1
active
